# credit: the Human Domainome abundance scans (Beltran et al. 2025)

B1: POU domain, class 3, transcription factor 3, residues 408 to 463; numbered along this chain, P20264 (parent)
chain: KKRTSIEVSVKGALESHFLKCPKPSAQEITNLADSLQLEKEVVRVWFCNRRQKEKR

Variants of: B1
Test: abundance fitness (aPCA) (normalised: wild type 0, dead -1); higher = more abundant; growth selection in yeast, the domain comes from the species named
Conditions: Homo sapiens
Lab note: anything with abundance fitness at or over -0.5 counts as label 1; the rest go in label 0.

Solved cases below.
>>> category_label("KKRTSIEVSVKGALESHFLKCPKPSAQEITNLADSLILEKEVVRVWFCNRRQKEKR [Q37I]")
"label 1"
>>> category_label("KKRTSIEVSVKGALESHFLKCPKPSAQEITNFADSLQLEKEVVRVWFCNRRQKEKR [L32F]")
"label 0"
>>> category_label("KKRTSIEVSVKGALESHFLKCPKPSAQEIGNLADSLQLEKEVVRVWFCNRRQKEKR [T30G]")
"label 1"
>>> category_label("KKRTSIEVSVKGALESHFLKCPKPSAQEITNLADSLQLFKEVVRVWFCNRRQKEKR [E39F]")
"label 0"
>>> category_label("KKRTSIIVSVKGALESHFLKCPKPSAQEITNLADSLQLEKEVVRVWFCNRRQKEKR [E7I]")
"label 1"
>>> category_label("KKRTSIEVSVKGALESHFLKCPKPSAQEITNLADSLQLEKEVVRDWFCNRRQKEKR [V45D]")
"label 1"
>>> category_label("KKRMSIEVSVKGALESHFLKCPKPSAQEITNLADSLQLEKEVVRVWFCNRRQKEKR [T4M]")
"label 1"
>>> category_label("KKRTSIEVSVKGAIESHFLKCPKPSAQEITNLADSLQLEKEVVRVWFCNRRQKEKR [L14I]")
"label 1"
>>> category_label("KKRTSIEVSVKGALESHFLKCPKPSAQEIDNLADSLQLEKEVVRVWFCNRRQKEKR [T30D]")
"label 1"
>>> category_label("KKRTSIEVDVKGALESHFLKCPKPSAQEITNLADSLQLEKEVVRVWFCNRRQKEKR [S9D]")
"label 1"

(Q) Entry KKRTSIESSVKGALESHFLKCPKPSAQEITNLADSLQLEKEVVRVWFCNRRQKEKR [V8S] : is its abundance fitness no less than -0.5?
(A) label 1

(Q) Entry KKRTSIEVSVKGALESPFLKCPKPSAQEITNLADSLQLEKEVVRVWFCNRRQKEKR [H17P] : is its abundance fitness no less than -0.5?
(A) label 0

(Q) Entry KKRTSIEVSVKGALESRFLKCPKPSAQEITNLADSLQLEKEVVRVWFCNRRQKEKR [H17R] : is its abundance fitness no less than -0.5?
(A) label 1
